Molecular target: hCB2 (Homo sapiens)
Construct: purchased BioSignal
Sequence (P34972 whole entry): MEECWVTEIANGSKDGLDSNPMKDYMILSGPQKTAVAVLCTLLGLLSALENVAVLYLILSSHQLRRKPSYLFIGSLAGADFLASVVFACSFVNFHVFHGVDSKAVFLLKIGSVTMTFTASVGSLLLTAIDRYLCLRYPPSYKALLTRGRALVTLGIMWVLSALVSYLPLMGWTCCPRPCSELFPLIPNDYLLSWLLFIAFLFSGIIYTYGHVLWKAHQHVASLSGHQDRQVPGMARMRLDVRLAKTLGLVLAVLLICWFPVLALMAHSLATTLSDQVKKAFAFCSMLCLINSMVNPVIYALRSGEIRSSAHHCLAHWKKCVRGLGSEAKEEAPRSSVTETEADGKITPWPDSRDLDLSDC
Assay: hCB2 GTPγS binding
Assay type: biochemical
Assay Readout: Emax (%)
Note: unit % is implicit; provide only the numeric part.

A selection of reference data follows.
1) CCOc1ccc(C(C)c2nc3cc(N(C)C(=O)CC(C)C)ccc3n2CC2CC2)cc1 (centres unmarked) ... 41
2) CCOc1ccc(Cc2nc3cc(N(C)C(=O)CC(C)C)ccc3n2Cc2ccc(COC(C)=O)o2)cc1 ... 67
3) CCOc1ccc(C(C)c2nc3cc(N(C)C(=O)NC(C)C)ccc3n2CC2CCCCC2)cc1 (centres unmarked) ... 88
4) CCOc1ccc(Cc2nc3cc(C(=O)N(CC)CC)cnc3n2Cc2ccc([N+](=O)[O-])s2)cc1 ... 72
5) CCOc1ccc(Cc2nc3cc(N(C)C(=O)CC(C)C)ccc3n2Cc2ccsc2)cc1 ... 70

The compound CCOc1ccc(C(O)c2nc3cc(C(=O)N(CC)CC)ccc3n2CCC(C)C)cc1 (centres unmarked) showed Emax equal to 70

The compound CCOc1ccc(Cc2nc3cc(C(=O)N(CC)CC)ccc3n2C[C@@H]2CCCO2)cc1 showed Emax equal to 76

The compound CCOc1ccc(C(C)c2nc3cc(N(C)C(=O)NC(C)C)ccc3n2CC2CC2)cc1 (racemic) [Example 53] showed Emax equal to 46
